system: MS2 coat protein; test: apparent KD of MS2 coat protein; designed switch direction (-1 OFF switch, 1 ON switch): -1; higher = weaker reporter binding; conditions: input ligand: FMN 200 uM
Would you please tag the item condition met when its apparent KD of MS2 coat protein is 30 nM or above, and condition not met when it is below?

Example results:
>  <ordered-residues>
ACCCGCACAAGCACCAGAGACAUGAGGAUCACCCAUGUAUAGUCGCACUAGGGUCUCUCUAGUCUAGCCGUUCGUCA [Eternabot (Original) Solution 44] (Eterna round: R97, puzzle: Sensor, turn-off variant 1)

>  <category>
condition met

$$$$
>  <ordered-residues>
UACACGGGAGGAUAUACGUAGAUGCAGGUUCGUGUGGUGCUACAUGAGGAUCACCCAUGUAGAAGGCCCAACGU [Mod 4 R3 JL-ex2-2.29] (Eterna round: R97, puzzle: Exclusion 2)

>  <category>
condition not met

$$$$
>  <ordered-residues>
GGAUCGAAAGUGAGGAUAUACCUAUGGAAACAUAGGUAGAAGGCACAUGAGGAUCACCCAUGUUCCUACGGUCC [Mat - Exclusion 4 - Eli Mod - D10] (Eterna round: R97, puzzle: Brourd's mod of Exclusion 4)

>  <category>
condition met

$$$$

Prompt line: Decide: is the reported value of apparent KD of MS2 coat protein for ACAGUUCUGCAAGGAUAUCGUCCUAGUUUGUUUCGAGAAGGUGCUUUUGUUUUUUCCUUUUGUUUACAUGAGGAUCACCCAUGU [JR_ExcNG1_Sub051] (Eterna round: R96, puzzle: Exclusion NG 1) equal to or greater than 30 nM?
Response line: condition not met

Prompt line: Decide: is the reported value of apparent KD of MS2 coat protein for UUAAAGGCAGGAUAUACAUUUUUUUUAUUAUCCUCAUUAUUACAUGAGGAUCACCCAUGUAGAAGGGCCAAAUU [Mat - Exclusion 2 - Mod of Hog - D85] (Eterna round: R96, puzzle: Exclusion 2) equal to or greater than 30 nM?
Response line: condition met

Prompt line: Decide: is the reported value of apparent KD of MS2 coat protein for CCUCAACAUGAGGAUCACCCAUGUCAGGAUAUGCGAAUUUCAUCAAAAGAUGAAAUUUGCAGAAGGGACUAAGC [Omei Ex1 A33] (Eterna round: R97, puzzle: Exclusion 1) equal to or greater than 30 nM?
Response line: condition met

Prompt line: Decide: is the reported value of apparent KD of MS2 coat protein for AUAAGUAUAUAGGAUAUCUAGCUGGUAACAGCUAGAGAAGGAUGUACAUGAGGAUCACCCAUGUAAAUCGAUCA [Ex6/10-A2] (Eterna round: R97, puzzle: Exclusion 6) equal to or greater than 30 nM?
Response line: condition not met

Prompt line: Decide: is the reported value of apparent KD of MS2 coat protein for ACAUGAGGAUCACCCAUGUCUGGCUGGUCCGCUCCGGCUGUUGAGGAUAUAGUUCGGUGUUCGCGCUAGAAGGUGAGGGCUGGC [Aenatbe mod 36] (Eterna round: R96, puzzle: Exclusion NG 3) equal to or greater than 30 nM?
Response line: condition not met

Prompt line: Decide: is the reported value of apparent KD of MS2 coat protein for UCGCUGCGAGGAUAUACAUGAGGAUCACCCAUGUGCGGGUCCGGGUCUUCGUCCAUUAGUAGAAGGCGCAGUGA [JL Laongeedie mod 4] (Eterna round: R96, puzzle: Exclusion 3) equal to or greater than 30 nM?
Response line: condition met

Origin of measurements: the supplement of paper PMC9170038
